Below is a list of entries, each paired with its recorded Biodistribution: Brain value.
# test-description: Organ distribution in normal ICR mice after iv injection of radiolabeled tracer
# Assay type: in vivo
# experimental-context: [125I]-labeled tracer, 30 min
# unit: % dose/g | format: bare number

molecule | value-unit | endpoint-result
CNc1ccc(/C=C/c2cnc(OCCO)c(I)c2)cc1 [[^125I]16b] | % dose/g | 0.88

CNc1ccc(/C=C/c2cnc(OCCOCCOCCF)c(I)c2)cc1 [[^125I]13b] yielded Biodistribution: Brain of 1.23

# Biodistribution: Brain of CN(C)c1ccc(/C=C/c2cnc(OCCO)c(I)c2)cc1 [[^125I]16a] = 3.56

Summary for this molecule, CN(C)c1ccc(/C=C/c2cnc(OCCOCCOCCF)c(I)c2)cc1 [[^125I]13a] : Biodistribution: Brain is 1.93

====

# test-description: Organ distribution in normal ICR mice after iv injection of radiolabeled tracer
# Format: in vivo
# experimental-context: [125I]-labeled tracer, 1 hr
The entries below are paired with their reported Biodistribution: Thyroid.
Return type: number; implicit unit % dose/g.

Worked cases, answers included:
compound | endpoint-result
CNc1ccc(/C=C/c2cnc(OCCOCCOCCF)c(I)c2)cc1 [[^125I]13b] | 38.09
CN(C)c1ccc(/C=C/c2cnc(OCCOCCOCCF)c(I)c2)cc1 [[^125I]13a] | 24.19
CN(C)c1ccc(/C=C/c2cnc(OCCO)c(I)c2)cc1 [[^125I]16a] | 59.13

Now, please, on to the next compound.
Lab book: Biodistribution: Thyroid of CNc1ccc(/C=C/c2cnc(OCCO)c(I)c2)cc1 [[^125I]16b] noted as 36.69
